tested_system: CD38 NAD+ hydrolase activity in NH7-dCas9 cells (Jurkat clone) (Homo sapiens, UniProt P28907)
Construct: The assay utilized CD38 expressing NH7-dCas9 cells (Jurkat clone); host or cells: NH7-dCas9 cells (Jurkat clone)
Sequence (P28907 whole entry): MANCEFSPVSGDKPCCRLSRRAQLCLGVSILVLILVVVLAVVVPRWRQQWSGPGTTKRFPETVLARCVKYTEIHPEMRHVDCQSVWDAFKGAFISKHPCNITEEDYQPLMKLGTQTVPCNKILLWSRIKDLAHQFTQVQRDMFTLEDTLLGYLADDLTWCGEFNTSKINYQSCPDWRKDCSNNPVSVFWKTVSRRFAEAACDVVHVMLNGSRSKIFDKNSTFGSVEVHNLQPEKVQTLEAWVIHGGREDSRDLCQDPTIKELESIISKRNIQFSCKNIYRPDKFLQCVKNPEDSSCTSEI
test_name: Fluorescence-based NAD+ hydrolase activity assay with human T cell line NH7-dCas9 cells-Jurkat clone (Assay 1)
test_context: read-out: Assay 1 Arithmetic mean IC50
Experimental: For the modified assay, the performance validation criteria of the assay as a High Throughput Screening (HTS): Z-factor within the plate was greater than 0.89 (optimal HTS z-factor >0.5) and the Intra-plate, inter-plate and day to day variability (CV) was less than 20%. NAD+ hydrolase activity of a human T cell line treated with test compounds was measured using a fluorescence-based assay. […]
Below is a list of entries, each paired with its recorded IC50 value.

For orientation, consider the following solved cases.
Nc1ccc(-n2ccnc2)nc1C(=O)Nc1ccnc(C(F)(F)F)c1	< 1 nM
CCN(C(C)=O)c1ccc(NC(=O)c2cccc(-n3ccnc3)n2)cn1	1 to 50 nM
COc1ccc(NC(=O)c2cccc(-n3ccnc3)n2)cn1	1 to 50 nM
COCCOc1cc(C(=O)Nc2ccnc(C(F)(F)F)c2)nc(-n2ccnc2)c1	< 1 nM
CC(=O)N(C)c1ccc(NC(=O)c2cccc(-n3ccnc3)n2)cn1	1 to 50 nM

Looking for the measured IC50 of `COC(=O)c1ccc(NC(=O)c2cccc(-n3ccnc3)n2)cn1` , can you help?
1 to 50 nM

Looking for the measured IC50 of `COCCNc1cc(NC(=O)c2cccc(-n3ccnc3)n2)ccn1` , can you help?
1 to 50 nM

Looking for the measured IC50 of `Cc1cc(C(=O)Nc2ccc(C(N)=O)nc2)nc(-n2ccnc2)c1` , can you help?
< 1 nM

Looking for the measured IC50 of `Cn1ccnc1-c1cccc(C(=O)Nc2ccc(C(F)(F)F)nc2)n1` , can you help?
< 1 nM

Looking for the measured IC50 of `CNc1cc(C(=O)Nc2cccnc2)nc(-n2ccnc2)c1` , can you help?
< 1 nM

Looking for the measured IC50 of `O=C(Nc1ccnc(C(F)(F)F)c1)c1cc(OC2CC2)cc(-n2ccnc2)n1` , can you help?
< 1 nM
